Listed below: logD values for each entry.
experiment: SUPPLEMENTARY: Lipophilicity (log D) Determination by high-throughput shake-flask; format: physicochemical; details: octanol/water
measurementKind: logD

INSERT INTO measurements (smilestext, measurementqualifier, resultvalue) VALUES
  ('O=C(COc1ccccc1)N1CCCC[C@@H]1c1csc(-c2n[nH]c3ccccc23)n1', '>', 3),
  ('COc1ccc(Cl)cc1S(=O)(=O)N(C)c1cc(C(=O)Nc2ccc(C(=O)O)cc2)cc2c1OCO2', '=', 0.26),
  ('COc1ccc(Cl)cc1CN1C(=O)OC(C)(C)c2ccc(C(=O)Nc3ccc(CC(=O)O)c(Cl)c3)cc21', '=', 1.83),
  ('COc1ccc(Cl)cc1CN(C(=O)C(C)C)c1cc(C(=O)Nc2nc(CC(=O)O)cs2)ccc1Cl', '=', 1.34),
  ('COc1ccc(Cl)cc1S(=O)(=O)N(C)c1cc(C(=O)Nc2nc(CC(=O)O)cs2)cc2c1OCO2', '=', -0.12),
  ('COc1ccc(Cl)cc1S(=O)(=O)N1CCOc2c(Cl)cc(C(=O)Nc3ncc(CC(=O)O)s3)cc21', '=', 2.27),
  ('Cc1cc(C)cc(S(=O)(=O)N2CCOc3ccc(C(=O)Nc4nc(CC(=O)O)cs4)cc32)c1', '=', 0.5),
  ('CC(=O)Nc1ccc(F)c(-c2n[nH]c([C@H]3CCCCN3C(=O)COc3ccccc3)n2)c1', '=', 2.5),
  ('O=C1CN(c2cccc(-c3noc([C@H]4CCCCN4C(=O)COc4ccccc4)n3)c2)C(=O)N1', '=', 2.62),
  ('COc1ccc(Cl)cc1S(=O)(=O)N1CCOc2c(C)cc(C(=O)Nc3ccc(CC(=O)O)cc3)cc21', '=', 0.68),
  ('O=C(COc1ccccc1)N1CCCC[C@@H]1c1noc(-c2cnc3[nH]cnc3c2)n1', '=', 2.36),
  ('COc1ccc(Cl)cc1S(=O)(=O)c1nn(C)c2ccc(C(=O)Nc3ccccc3)cc12', '>', 3),
  ('Cc1ccc(-c2nc([C@H]3CCCCN3C(=O)COc3ccccc3)cs2)cn1', '>', 3),
  ('COc1ccc2[nH]cc(C(=O)COc3ccncc3)c2c1', '=', 0.42);

---

Below, each of the compounds is paired with its reported pIC50 value.
target: Carnitine O-palmitoyltransferase 1, liver isoform (Rattus norvegicus, UniProt P32198); assay: SUPPLEMENTARY: Inhibition of Carnitine palmitoyltransferase 1, liver isoform
pIC50: −log10 of the molar value.
measurementKind: pIC50

INSERT INTO measurements (smilestext, resultvalue) VALUES
  ('COc1ccc(Cl)cc1S(=O)(=O)Nc1cccc(C#Cc2ccc(C(=O)O)cc2)c1', 7.07),
  ('O=C([O-])c1cccc(-c2csc([C@H]3CCCCN3C(=O)COc3ccccc3)n2)c1.[Na+]', 7.02),
  ('CCN(CC)C(=O)c1nc([C@H]2CCCCN2C(=O)COc2ccccc2)no1', 6.03);

---

Molecular target: Carnitine O-palmitoyltransferase 1, liver isoform (Homo sapiens)
Sequence (P50416 whole entry): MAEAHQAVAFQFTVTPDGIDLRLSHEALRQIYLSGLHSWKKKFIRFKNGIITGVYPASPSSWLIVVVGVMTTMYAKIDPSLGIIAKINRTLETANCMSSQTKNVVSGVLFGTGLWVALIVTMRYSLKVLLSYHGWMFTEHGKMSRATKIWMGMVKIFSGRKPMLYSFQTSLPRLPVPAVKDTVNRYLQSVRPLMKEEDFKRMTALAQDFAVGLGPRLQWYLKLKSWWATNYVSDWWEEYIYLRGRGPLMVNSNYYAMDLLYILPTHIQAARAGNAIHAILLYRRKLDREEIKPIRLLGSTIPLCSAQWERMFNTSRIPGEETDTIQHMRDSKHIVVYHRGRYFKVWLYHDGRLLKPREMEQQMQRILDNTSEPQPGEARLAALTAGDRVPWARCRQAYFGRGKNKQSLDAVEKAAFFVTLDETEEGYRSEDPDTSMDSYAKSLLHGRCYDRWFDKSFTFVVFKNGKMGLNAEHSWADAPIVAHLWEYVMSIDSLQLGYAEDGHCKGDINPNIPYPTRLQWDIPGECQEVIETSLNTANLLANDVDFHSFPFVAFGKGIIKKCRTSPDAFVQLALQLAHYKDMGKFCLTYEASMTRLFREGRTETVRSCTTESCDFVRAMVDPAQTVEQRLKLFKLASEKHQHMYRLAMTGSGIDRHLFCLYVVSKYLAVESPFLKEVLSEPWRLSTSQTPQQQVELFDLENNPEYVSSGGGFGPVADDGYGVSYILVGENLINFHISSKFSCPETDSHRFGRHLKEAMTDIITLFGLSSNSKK
Experiment: SUPPLEMENTARY: Inhibition of Carnitine palmitoyltransferase 1, liver isoform
measurementKind: IC50 (nM)

INSERT INTO results (molecule, measurementqualifier, resultvalue) VALUES
  ('COc1ccc(Cl)cc1[S+]([O-])c1c[nH]c2ccc(C(=O)Nc3ccccc3)cc12 (configuration not stated)', '>', 10000),
  ('O=C(NC1CC1)c1cncc(-c2noc([C@H]3CCCCN3C(=O)COc3ccccc3)n2)c1', '=', 111),
  ('Cn1cc(S(=O)(=O)c2cccc(Cl)c2)c2cc(C(=O)Nc3nc(CC(=O)O)cs3)ccc21', '=', 75.4),
  ('COc1ccc(Cl)cc1S(=O)(=O)c1cn(CCC(=O)O)c2ccc(C(=O)Nc3ccccc3)cc12', '=', 7.1),
  ('COc1ccc(Cl)cc1Cc1cn(C)c2ccc(C(=O)Nc3nc(CC(=O)O)cs3)cc12', '=', 40.6),
  ('COc1ccc(Cl)cc1S(=O)(=O)N1CCOc2c(C(F)F)cc(C(=O)Nc3ccc(C(=O)O)cc3)cc21', '=', 325),
  ('O=C1CCN1c1cccc(-c2n[nH]c([C@H]3CCCCN3C(=O)COc3ccccc3)n2)c1', '=', 114),
  ('COc1ccc(Cl)cc1S(=O)(=O)N(c1cc(C(=O)Nc2ccn(CC(=O)O)n2)cc2c1OCO2)C(C)C', '=', 1070),
  ('O=C(COc1ccccc1)N1CCCC[C@@H]1c1noc(-c2cccc(-n3cn[nH]c3=O)c2)n1', '=', 59.1),
  ('CCOc1ccc2c(c1)CN(C(=O)[C@H]1CCCCN1C(=O)COc1ccccc1)C2', '=', 161),
  ('COc1ccc(Cl)cc1S(=O)(=O)N1CCOc2c(Cl)cc(C(=O)Nc3ccc(CC(=O)O)cc3)cc21', '=', 122),
  ('COc1ccc(Cl)cc1S(=O)(=O)N1COc2c(OC)cc(C(=O)Nc3ccc(C(=O)O)cc3)cc21', '=', 530);

---

Target: Carnitine O-palmitoyltransferase 1, liver isoform (Rattus norvegicus, UniProt P32198)
Sequence (P32198 whole entry): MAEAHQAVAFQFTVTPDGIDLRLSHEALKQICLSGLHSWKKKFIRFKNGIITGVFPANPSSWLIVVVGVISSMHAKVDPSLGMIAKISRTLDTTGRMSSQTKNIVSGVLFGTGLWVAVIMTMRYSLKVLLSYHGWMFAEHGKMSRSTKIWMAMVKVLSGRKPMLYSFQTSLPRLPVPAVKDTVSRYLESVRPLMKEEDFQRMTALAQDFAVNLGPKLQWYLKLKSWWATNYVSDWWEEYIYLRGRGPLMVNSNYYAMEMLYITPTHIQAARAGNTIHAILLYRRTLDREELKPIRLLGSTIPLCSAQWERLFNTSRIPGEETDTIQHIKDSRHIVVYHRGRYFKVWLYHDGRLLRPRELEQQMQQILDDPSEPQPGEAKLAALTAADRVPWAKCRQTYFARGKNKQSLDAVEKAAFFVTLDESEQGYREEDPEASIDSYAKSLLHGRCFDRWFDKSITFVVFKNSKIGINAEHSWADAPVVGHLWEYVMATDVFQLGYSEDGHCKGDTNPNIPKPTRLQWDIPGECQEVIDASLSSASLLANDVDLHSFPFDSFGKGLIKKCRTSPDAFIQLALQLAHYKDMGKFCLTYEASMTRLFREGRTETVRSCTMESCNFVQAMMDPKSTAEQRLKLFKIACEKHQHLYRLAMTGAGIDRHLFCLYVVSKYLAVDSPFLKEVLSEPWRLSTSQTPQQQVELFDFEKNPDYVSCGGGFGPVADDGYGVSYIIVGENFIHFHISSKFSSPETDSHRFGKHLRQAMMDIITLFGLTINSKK
Assay: SUPPLEMENTARY: Inhibition of Carnitine palmitoyltransferase 1, liver isoform
measurementKind: IC50 (nM)

INSERT INTO assay_data (molecule, unitstring, resultvalue) VALUES
  ('COc1ccc(Cl)cc1Cc1c[nH]c2ccc(C(=O)Nc3ccc(CC(=O)O)cc3)cc12', 'nM', 147),
  ('COc1ccc(Cl)cc1S(=O)(=O)N1CC(C)c2ccc(C(=O)Nc3ccc(C(=O)O)c(F)c3)cc21 (stereo not drawn)', 'nM', 46.7),
  ('O=C(COc1ccccc1)N1CCCC[C@@H]1c1nnn(-c2ccc3[nH]ccc3c2)n1', 'nM', 162);
